src = patent US20130330343A1

Target Under Test: T1, Rat RGMa (rat) (UniProt D4A188)
T1 sequence: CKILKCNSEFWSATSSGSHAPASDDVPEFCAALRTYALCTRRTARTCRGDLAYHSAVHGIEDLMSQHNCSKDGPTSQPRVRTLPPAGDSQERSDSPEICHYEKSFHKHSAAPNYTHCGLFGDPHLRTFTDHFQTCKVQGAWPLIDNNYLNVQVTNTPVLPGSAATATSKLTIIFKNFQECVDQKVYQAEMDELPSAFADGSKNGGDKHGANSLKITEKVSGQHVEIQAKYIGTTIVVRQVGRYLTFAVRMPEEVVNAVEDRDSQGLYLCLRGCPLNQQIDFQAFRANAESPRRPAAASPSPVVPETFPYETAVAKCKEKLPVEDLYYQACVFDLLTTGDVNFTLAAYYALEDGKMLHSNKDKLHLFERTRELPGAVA
Method Summary: BIAcore; Ab captured via anti-hIgG Fc on CM5 chip, antigen injected; 1:1 Langmuir fit
Property Label: kon (M⁻¹ s⁻¹)
Give bare numbers, in M⁻¹ s⁻¹.

// known answers, use as guide
RGMA-h5F9Vh7a/pJP291 hIgG1/K mut (antibody, V domains shown, Tested as IgG; also called h5F9.AM4; H5F9AM.4) VH: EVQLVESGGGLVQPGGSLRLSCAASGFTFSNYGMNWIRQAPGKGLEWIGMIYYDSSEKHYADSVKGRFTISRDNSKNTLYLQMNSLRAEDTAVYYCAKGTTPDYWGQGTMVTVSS VL: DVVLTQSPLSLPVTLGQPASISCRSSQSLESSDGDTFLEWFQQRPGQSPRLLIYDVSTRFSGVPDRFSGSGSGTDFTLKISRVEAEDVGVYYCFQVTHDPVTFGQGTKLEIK	1.1e+06
humanized antibody 5F9.23 (antibody, V domains shown, also called h5F9.23; H5F9.23) VH: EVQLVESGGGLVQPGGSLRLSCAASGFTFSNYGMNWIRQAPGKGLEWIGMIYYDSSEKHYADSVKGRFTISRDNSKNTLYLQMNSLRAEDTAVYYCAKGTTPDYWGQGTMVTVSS VL: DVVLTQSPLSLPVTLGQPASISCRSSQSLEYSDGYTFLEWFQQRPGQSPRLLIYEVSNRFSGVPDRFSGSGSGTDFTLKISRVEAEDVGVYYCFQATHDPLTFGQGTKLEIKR	830000

// next entry
Q: Quick one: kon for RGMA-h5F9pJP297/pJP299 hIgG1/K mut (antibody, V domains shown, Tested as IgG; also called h5F9.AM9; H5F9AM.9) VH: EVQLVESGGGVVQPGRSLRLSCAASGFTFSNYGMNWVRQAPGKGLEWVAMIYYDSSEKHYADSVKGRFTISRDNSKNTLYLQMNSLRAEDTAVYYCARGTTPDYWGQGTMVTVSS VL: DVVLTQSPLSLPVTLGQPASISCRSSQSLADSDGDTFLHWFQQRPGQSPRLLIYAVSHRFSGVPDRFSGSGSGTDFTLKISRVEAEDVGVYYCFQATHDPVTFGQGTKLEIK ?
Ans: 680000
